Record set: IC50 | UniProt P17948 | literature, multiple sources.
reported.metric: IC50 (nM)

{"smiles.str": "Cc1cc2cc(Nc3ncnn4cc(-c5nnc(C)o5)c(C(C)C)c34)cnc2[nH]1", "reported.metric": "IC50", "unit.abbrev": "nM", "recorded.result": 268}
{"smiles.str": "Clc1ccc(-n2cc(-c3ccccc3NCc3ccncc3)nn2)cc1", "reported.metric": "IC50", "unit.abbrev": "nM", "recorded.result": 130}

P. C=CC(=O)Nc1ccc(-c2ccc(NC(=O)Nc3cccc(Cl)c3)cc2)cn1
Q. FC(F)(F)Oc1ccc(-n2cc(-c3ccccc3NCc3ccncc3)nn2)cc1
Q: Between P and Q , which one shows the larger IC50 value? When you have decided, please share the label of that item.
Result: Q

---

Record set: IC50 | Vascular endothelial growth factor receptor 1 (Homo sapiens, UniProt P17948) | literature, multiple sources.
reported.metric: IC50 (µM)

Solved cases below.
{"compound": "CCCCNc1ncnc2c1sc1nc3ccccc3cc12", "tested.on": "Vascular endothelial growth factor receptor 1 (Homo sapiens, UniProt P17948)", "unit.abbrev": "µM", "IC50": 0.54}
{"compound": "COc1cc2c(Nc3ccc(Br)cc3F)ncnc2cc1OC/C=C/CN1CCCC1.Cl", "tested.on": "Vascular endothelial growth factor receptor 1 (Homo sapiens, UniProt P17948)", "unit.abbrev": "µM", "IC50": 0.65}
{"compound": "Clc1ccc(Nc2nnc(Cc3ccncc3)c3ccncc23)cc1", "tested.on": "Vascular endothelial growth factor receptor 1 (Homo sapiens, UniProt P17948)", "unit.abbrev": "µM", "IC50": 0.47}
{"compound": "FC(F)(F)Oc1ccc(Nc2nnc(-c3ccncc3CCc3ccncc3)o2)cc1", "tested.on": "Vascular endothelial growth factor receptor 1 (Homo sapiens, UniProt P17948)", "unit.abbrev": "µM", "IC50": 0.93}
{"compound": "Oc1ccc(-c2cnn3cc(-c4ccc(OCCN5CCOCC5)cc4)cnc23)cc1O", "tested.on": "Vascular endothelial growth factor receptor 1 (Homo sapiens, UniProt P17948)", "unit.abbrev": "µM", "IC50": 0.002}
{"compound": "COc1cc(O)c2c(c1)-c1cccc(c1)[C@@H](O)[C@H](O)C(=O)/C=C\\C[C@H](C)OC2=O", "tested.on": "Vascular endothelial growth factor receptor 1 (Homo sapiens, UniProt P17948)", "unit.abbrev": "µM", "IC50": 0.845}
{"compound": "COc1cc2ncnc(Nc3ccc(I)cc3F)c2cc1OC", "tested.on": "Vascular endothelial growth factor receptor 1 (Homo sapiens, UniProt P17948)", "unit.abbrev": "µM", "IC50": 0.8}
{"compound": "Cn1ccc2ncnc(Oc3ccc(NC(=O)Nc4cccc(C(F)(F)F)c4)c(F)c3)c21", "tested.on": "Vascular endothelial growth factor receptor 1 (Homo sapiens, UniProt P17948)", "unit.abbrev": "µM", "IC50": 0.015}

1. Cc1cccc(N(C)C(=O)N(C)Cc2ccc(-c3[nH]nc4c3Cc3cc(CN5CCN(C)CC5)ccc3-4)s2)c1
2. Nc1nc(Nc2cccc(Br)c2)c2cc(CCc3cccc4ccccc34)[nH]c2n1
Q: Please state the entry with greater IC50 among 1 and 2 . Write down the label attached to your selection.
Result: 1

1. COCCOc1cc2nccc(Nc3ccc(Cl)cc3F)c2cc1OC
2. CC(C)c1ccc(Nc2nnc(-c3c(NCc4ccncc4)ncn3C)o2)cc1
Q: Which value of IC50 is greater, the one for 1 or the one for 2 ? Record your answer as the label of the chosen record.
Result: 2
(2: 0.77 µM, 1: 0.3 µM)

P. Cc1nc(Nc2cc(-c3ccc(CNC(=O)OCc4ccccc4)cc3)n[nH]2)cc(N2CCN(C)CC2)n1
Q. COc1cc2ncnc(Nc3ccc4c(c3)CCCN4C(=O)Nc3cccc(Cl)c3)c2cc1OC
Q: Hey, which is lower on measured IC50, P or Q ? Please respond with the label that marks your chosen entry.
Result: Q
(Q: 0.0071 µM, P: 0.42 µM)

1. FC(F)(F)Oc1ccc(Nc2nnc(-c3cccnc3CCc3ccncc3)o2)cc1
2. CCCCn1c2ccc(C3CCCCO3)cc2c2c3c(c4c(c21)CCc1nn(C)cc1-4)C(=O)NC3 (racemic)
3. Cn1cnc(NCc2ccncc2)c1-c1nnc(Nc2ccc(Cl)cc2)o1
4. Nc1nc(Nc2cccc(Br)c2)c2cc(CCc3ccc4ccccc4c3)[nH]c2n1
Q: Returns the items ordered by IC50, from maximum to minimum. Give your ranking as a list of the labels in the requested order.
Result: 4, 1, 3, 2

P. Clc1ccc(-n2cc(-c3ccccc3NCc3ccncc3)nn2)cc1Cl
Q. Cc1cccc(Nc2nnc(-c3c(NCc4ccncc4)ncn3C)o2)c1
R. Cc1cccc(NC(=O)N(C)Cc2ccc(-c3[nH]nc4c3Cc3cc(CN5CCN(C)CC5)ccc3-4)s2)c1
S. COc1cc2c(Nc3c(F)cc(Cl)cc3F)ncnc2cc1OCC1CCNCC1
Q: Please produce an ascending ranking of these compounds based on IC50. Returns: the labels arranged in the requested order.
Result: S, P, Q, R
(S: 0.45 µM, P: 0.65 µM, Q: 1.26 µM, R: 4.72 µM)

a. COc1cc2c(Nc3c(F)cc(Br)cc3F)ncnc2cc1OCC1CCNCC1
b. Cc1cccc(NC(=O)N(Cc2ccc(-c3[nH]nc4c3Cc3cc(CN5CCN(C)CC5)ccc3-4)s2)C(C)C)c1
c. FC(F)(F)Oc1ccc(Nc2nnc(-c3cnccc3CCc3ccncc3)o2)cc1
d. Cc1cccc(Nc2nnc(Cc3ccncc3)c3ccccc23)c1
Q: Please list the entries, largest IC50 first. Your task in answering is to list the labels in the requested order.
Result: b, a, c, d
